B1: Pistol ribozyme (parent)
chain: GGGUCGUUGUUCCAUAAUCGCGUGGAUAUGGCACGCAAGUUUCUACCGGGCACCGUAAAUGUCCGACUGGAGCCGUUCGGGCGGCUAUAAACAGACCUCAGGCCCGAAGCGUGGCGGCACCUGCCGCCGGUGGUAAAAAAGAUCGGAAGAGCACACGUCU

Variants of: B1
Assay: aptazyme ON/OFF ratio, guanine; higher = stronger switching; co-transcriptional cleavage with and without guanine
As shown below, each of these variants has a reported aptazyme ON/OFF ratio value.
readout_label: aptazyme ON/OFF ratio

sequence_change: U7G G9C C12A C13G
readout_number: 1.33

sequence_change: U7C U8A G9A U10G U11C C13A
readout_number: 1.05

sequence_change: U7A U8A G9A U10G U11C C12U C13A
readout_number: 1.07

sequence_change: U7G U8C G9A U10G C12G C13U
readout_number: 1.15

sequence_change: U7A G9U U10G U11A C12U C13A
readout_number: 1.16

sequence_change: U7A U8G U11A C12G C13G
readout_number: 1.07

sequence_change: G9C U10G U11A C13G
readout_number: 1.09

sequence_change: U7G U10C U11G C13U
readout_number: 1.14

sequence_change: U8A G9A U10C U11G C12A
readout_number: 1.03

sequence_change: U7G U8A G9U U10G U11A C12U C13A
readout_number: 1.11

sequence_change: U8C U10A U11C C12U C13G
readout_number: 1.07
